- Tested on: HL-60(TB) leukemia
- ASSAY_INFO: NCI-60 one-dose screen, 48 h
- MEASUREMENT_CONDITIONS: 10 µM unless noted
Compounds without any hit were thinned out: in the full panel of roughly 83,000, 20% have a hit. Calls of active or inactive are those of the source. The calls were made as follows: active = growth percent below 10; inactive = the rest.
Valid outcomes are listed here; reply with one: 1 = active, -1 = inactive

C=C(CN1CC=CCC1)[C@@H]1CC[C@]2(COC(C)=O)CC[C@]3(C)[C@H](CC[C@@H]4[C@@]5(C)CC[C@H](O)C(C)(C)[C@@H]5CC[C@]43C)[C@@H]12 :: -1

// outcome(item) with item = COc1cc(-c2cc(-c3nc4ccc(Cl)cc4[nH]3)[nH]n2)cc(OC)c1OC
-1

====

- System: NCI-H23 lung
- ASSAY_INFO: NCI-60 one-dose screen, 48 h (100 = growth as untreated, 0 = no growth, -100 = all killed)
- MEASUREMENT_CONDITIONS: 10 µM unless noted
This is part of a sample that, as a whole, favours compounds with a hit. Of some 83,000 tested, about 20% had one in any assay.
Entries and their growth values follow.
Provide the reading as a plain figure in %.

Fill in growth for record COc1ccc(C(c2ccc(OC)cc2)C(Cl)(Cl)Cl)cc1
81.9

Fill in growth for record [O]=[Sn]([CH]1CCCCC1)[CH]1CCCCC1
-93.5

Fill in growth for record CCC(C)/C=C(C)/C=C/C(=O)c1c(O)c(-c2ccc(O)cc2)c[nH]c1=O (stereo unspecified)
64.6

Fill in growth for record CC1=C(SCCC(=O)OCC(=O)NCCC[Te]c2ccccc2)C(=O)c2ccccc2C1=O
-33.6

Fill in growth for record O=CC(Br)C(Br)c1ccccc1 (stereo unspecified)
104

Fill in growth for record O=C(O)c1[nH]c(=O)[nH]c(=O)c1F
93

Fill in growth for record CC(=O)C1C(=O)N(C)C(=O)N(C)C1=O
121

Fill in growth for record Oc1ccc(Br)cc1CN1CCN(Cc2ccc(Cl)cc2)CC1
91.1

Fill in growth for record C/C(=C\C(=O)O[C@H]1[C@@H]2[C@H](C)CC[C@H]2[C@]2(C)O[C@@]1(C1CCCCC1)C[C@H]2OC(=O)CO)c1ccccc1
50.8

Fill in growth for record CO[C@@H]([CH2][Hg][S]C#N)[C@@H]([CH2][Hg][S]C#N)OC
92.3

Fill in growth for record c1ccc([As]=[As]c2ccccc2)cc1 (stereo unspecified)
-37.2

====

- Test system: T-47D breast
- ASSAY_INFO: NCI-60 one-dose screen, 48 h (100 = growth as untreated, 0 = no growth, -100 = all killed)
- MEASUREMENT_CONDITIONS: 10 µM unless noted
Compounds without any hit were thinned out: in the full panel of roughly 83,000, 20% have a hit.
METRIC_NAME: growth (%)
Provide the reading as a plain figure in %.

O=C(O)c1cccc(CCl)c1 :: 96.3
COC(=O)C[Se]C(=O)c1ccccc1OC(C)=O :: 84.5
CC1(C)CC2(CC(C)(C)c3cc(O)c(O)cc32)c2cc(O)c(O)cc21 :: 104

Here is another molecule to look at.
Fill in growth for record C=CCN1C(=O)C(CC)(CCC(C)C)C(=O)NC1=S (configuration not stated)
113

====

- System: HL-60(TB) leukemia
- ASSAY_INFO: NCI-60 one-dose screen, 48 h (100 = growth as untreated, 0 = no growth, -100 = all killed)
- MEASUREMENT_CONDITIONS: 10 µM unless noted
- Procedure: Growth inhibition of the HL-60(TB) human tumor cell line is measured as a screen for anti-cancer activity. Cells are grown in 96 well plates and exposed to the test compound for 48 hours. Compounds are tested at a single concentration, which is 10^-5 M for most compounds. The reported endpoint is percent growth (GI% or GIPRCNT), where numbers from 0 - 100% represent growth inhibition, and numbers from -100% - 0 represent cell death. For example, a value of 40 represents 60% growth inhibition. […]
About 83,000 compounds went through this panel and 20% of them were active in at least one assay; those are over-represented in the sample as a whole.
METRIC_NAME: growth (%)
Provide the reading as a plain figure in %.

Below are worked cases with known answers.
N#Cc1cccc(C2C3=C(COC3=O)N(CCO)c3cc4c(cc32)OCO4)c1 (centres undefined) :: -32.1
O=C(O)c1cc2cc(OCc3ccccc3)ccc2[nH]1 :: 112
Cc1cc2cc3cc(C)c(N(C)C)cc3nc2cc1N(C)C :: 47.5
C/C(=C\CCc1ccoc1)CC/C=C(\C)CCCN1CCOCC1 :: 35.5
Cc1cccc(C[C@H](NC(=O)Nc2ccc(Cl)cc2F)C(=O)N[C@@H]2C(=O)N3C[C@H](OC(=O)CCN(C)C)C[C@H]3C(=O)N3CCCC[C@H]3C(=O)N[C@@H](C)C(=O)N3C[C@H](C)C[C@H]3C(=O)O[C@H]2C)c1 :: 16.3

Fill in growth for record O=C1c2ccccc2-c2nnc(-c3ccc(Br)cc3)cc21
0.71

Fill in growth for record O=[N+]([O-])c1ccccc1/C=N\NC(=S)N/N=C/c1ccccc1[N+](=O)[O-]
9.57

Fill in growth for record C=CCn1cc(-c2nc3ccccc3s2)c2cc(-c3ccc4c5c(cccc35)C(=O)N(CCN3CCNCC3)C4=O)ccc21
103

Fill in growth for record CCOc1ccccc1/C=N\Nc1ccc(S(=O)(=O)c2ccc(N/N=C/c3ccccc3OCC)cc2)cc1
102

====

- System: SK-MEL-5 melanoma
- ASSAY_INFO: NCI-60 one-dose screen, 48 h (100 = growth as untreated, 0 = no growth, -100 = all killed)
- MEASUREMENT_CONDITIONS: 10 µM unless noted
About 83,000 compounds went through this panel and 20% of them were active in at least one assay; those are over-represented in the sample as a whole.
Entries and their growth values follow.
Provide the reading as a plain figure in %.

Below are worked cases with known answers.
COC1=CC(=O)OC(CCc2ccc3c(c2)OCO3)C1 (configuration not stated) :: 102
CC[C@]12C=CCN3CC[C@@]4(c5ccc(OC)cc5N(C)[C@H]4[C@@](O)(C(=O)OC)[C@@H]1OC(=O)CCCN1CCN(CCCC(=O)O[C@@H]4[C@]5(CC)C=CCN6CC[C@@]7(c8ccc(OC)cc8N(C)[C@H]7[C@@]4(O)C(=O)OC)[C@@H]65)CC1)[C@@H]32 :: -95.9

Fill in growth for record O=C(O)c1cccc(CCl)c1
113

Fill in growth for record N#CC1c2ccccc2C=CN1C(=O)c1ccc(N(CCCl)CCCl)cc1 (configuration not stated)
84

Fill in growth for record O=c1cc[nH]c(=O)o1
105

Fill in growth for record CNC(=O)Oc1cccc(N(C)C)c1
99.2

Fill in growth for record C[CH2][Pb]([CH2]C)([CH2]C)[O]C(=O)COc1ccccc1
-21.4

====

- Tested on: HL-60(TB) leukemia
- ASSAY_INFO: NCI-60 one-dose screen, 48 h
- MEASUREMENT_CONDITIONS: 10 µM unless noted
Compounds without any hit were thinned out: in the full panel of roughly 83,000, 20% have a hit. The source made the active and inactive calls. The calls were made as follows: active = growth percent below 10; inactive = the rest.
Valid outcomes are listed here; reply with one: y = active, n = inactive

C=C1C(=O)O[C@H]2[C@H]1CC/C(COC(=O)/C=C\C(=O)O)=C\CC[C@@]1(C)O[C@@H]21 :: n
CCCCN(CCCC)CC(O)c1ccccc1 (stereo unspecified) :: n
CC1CCCCN1S(=O)(=O)c1ccc(CN=C=S)cc1 (stereo unspecified) :: n
Nc1n[nH]c2cccc(C#Cc3cccc(C(=O)Nc4ccc(CN5CCOCC5)c(C(F)(F)F)c4)c3)c12 :: y

// outcome(item) with item = Clc1nc(Oc2ccccc2)nc(-c2cn(-c3ccccc3)c3ccccc23)n1
n

// outcome(item) with item = CSCCC(NC(=O)c1ccccc1)C(=O)N/N=C1\S/C(=C/c2ccc(Cl)cc2)C(=O)N1C (stereo unspecified)
n

====

- Tested on: HL-60(TB) leukemia
- ASSAY_INFO: NCI-60 one-dose screen, 48 h
- MEASUREMENT_CONDITIONS: 10 µM unless noted
Compounds without any hit were thinned out: in the full panel of roughly 83,000, 20% have a hit. Active and inactive are the calls of the source. The calls were made as follows: active = growth percent below 10; inactive = the rest.
Valid outcomes are listed here; reply with one: 1.0 (active), 0.0 (inactive)

Check out these entries, answers already filled in.
CC(=O)O[C@@H]1C2=C(C)C3(CC3)[C@@](C)(O)C(=O)C2=C[C@@]1(C)CO :: 1.0
CN(C)c1ccc(C(=O)OCCCCCCl)cc1 :: 0.0
Oc1[nH]c2ccccc2c1/C=c1/cc2c(c(-c3ccc(F)cc3)n1)=Nc1ccccc1-2 :: 1.0

Could you now consider this next molecule?
// outcome(item) with item = COc1ccc(-c2cc(-c3cc(OC)c(OC)c(OC)c3)nc(N3CCOCC3)c2C#N)cc1
0.0
